- target_desc: Cannabinoid receptor 2 (Homo sapiens, UniProt P34972)
- Sequence (P34972 whole entry): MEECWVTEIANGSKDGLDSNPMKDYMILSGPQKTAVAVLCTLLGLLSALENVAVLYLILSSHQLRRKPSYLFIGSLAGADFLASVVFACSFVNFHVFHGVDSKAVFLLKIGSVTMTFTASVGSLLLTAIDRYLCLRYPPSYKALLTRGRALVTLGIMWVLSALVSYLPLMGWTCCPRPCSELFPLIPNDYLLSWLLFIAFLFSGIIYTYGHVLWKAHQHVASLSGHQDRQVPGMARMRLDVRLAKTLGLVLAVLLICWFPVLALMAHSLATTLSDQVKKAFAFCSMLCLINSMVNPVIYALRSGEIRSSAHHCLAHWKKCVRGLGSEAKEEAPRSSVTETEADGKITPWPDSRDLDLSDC
- test: Agonist activity at human CB2 receptor expressed in CHO cells assessed as stimulation of [35S]-GTPgammaS binding relative to basal activity
- Assay type: functional, cell-based
measured_metric: Emax
Report as: number unit

compound	Emax
CCCCCn1cc(C(=O)NN2CCCCC2)c(=O)cc1-c1ccccc1	48%
CCCCCn1cc(C(=O)NC23CC4CC(CC(C4)C2)C3)c(=O)cc1C(C)(C)C	212%
CCCCCn1cc(C(=O)NC(C)C23CC4CC(CC(C4)C2)C3)c(=O)cc1-c1ccccc1 (racemic)	46%

For each of the compounds below, note its Emax.
1. CCCCCn1cc(C(=O)NC2CCCCC2)c(=O)cc1-c1ccccc1
2. CCCCCn1cc(C(=O)N[C@@H]2CCCc3ccccc32)c(=O)cc1-c1ccccc1
3. CCCCCn1cc(C(=O)N[C@H]2CCCc3ccccc32)c(=O)cc1-c1ccccc1
4. CCCCCn1cc(C(=O)Nc2cccc(C(F)(F)F)c2)c(=O)cc1-c1ccc(Cl)cc1

RESULT:
["62%", "42%", "48%", "42%"]

For each of the compounds below, note its Emax.
1. CCCCCn1cc(C(=O)Nc2cccc(C(F)(F)F)c2)c(=O)cc1-c1ccccc1
2. Cc1c(C(=O)c2cccc3ccccc23)c2cccc3c2n1[C@H](CN1CCOCC1)CO3
3. CCCCCn1cc(C(=O)NC23CC4CC(CC(C4)C2)C3)c(=S)cc1-c1ccccc1

RESULT:
1: 42%; 2: 207%; 3: 30%

----------
- target_desc: Cannabinoid receptor 2 (Homo sapiens)
- test: Agonist activity at human CB2 receptor expressed in CHO cells assessed as stimulation of [35S]-GTPgammaS binding
measured_metric: pEC50
Answers are plain numbers, as −log10 of the molar value.

Answered examples (3):
1. CCCCCn1cc(NC(=O)OC(C)(C)C)c(=O)cc1-c1ccccc1 6.79
2. CCCCCn1cc(C(=O)NC23CC4CC(CC(C4)C2)C3)c(=S)cc1-c1ccccc1 7.77
3. CCCCCn1cc(C(=O)NC2CCCCC2)c(=S)cc1-c1ccccc1 7.57

For each of the molecules below, note its pEC50.
1. CCCCCn1cc(NC(=O)C2CCCCC2)c(=O)cc1-c1ccccc1
2. CCCCCn1cc(C(=O)Nc2cccc(C(F)(F)F)c2)c(=O)cc1-c1ccc(Cl)cc1
3. CCCC(C)(C)c1ccc2c(c1)OC(C)(C)[C@@H]1CC=C(O)C[C@@H]21
4. CCCCCn1cc(C(=O)Nc2cccc(C(F)(F)F)c2)c(=O)cc1-c1ccccc1

RESULT:
1: 7.60; 2: 6.80; 3: 6.84; 4: 7.85

----------
Quick record of Ki values for Cannabinoid receptor 1 (Homo sapiens).
Numbers only, in nM.

compound	target_desc	endpoint_unit	test_value
CCCCCn1cc(C(=O)NC2CCCCC2)c(=O)cc1-c1ccccc1	Cannabinoid receptor 1 (Homo sapiens)	nM	929
CCCCCn1cc(C(=O)NCC23CC4CC(CC(C4)C2)C3)c(=O)cc1-c1ccccc1	Cannabinoid receptor 1 (Homo sapiens)	nM	626
CCCCCn1cc(C(=O)NC(C)C23CC4CC(CC(C4)C2)C3)c(=O)cc1-c1ccccc1 (racemic)	Cannabinoid receptor 1 (Homo sapiens)	nM	368
CCCCCn1cc(C(=O)NC23CC4CC(CC(C4)C2)C3)c(=O)cc1-c1ccccc1	Cannabinoid receptor 1 (Homo sapiens)	nM	592

Switching to the query record.
QUERY: Reported Ki for CCCCCCn1cc(C(=O)NC23CC4CC(CC(C4)C2)C3)c(=O)cc1-c1ccccc1 : what is it?
RESULT: 596

----------
- target_desc: Cannabinoid receptor 2 (Homo sapiens, UniProt P34972)
measured_metric: Ki (nM)
Answers are plain numbers, in nM.

Answered examples (3):
input_smiles	endpoint_unit	Ki
CCCCCn1cc(C(=O)NC2CCCCC2)c(=S)cc1-c1ccccc1	nM	48
CCCCCn1cc(NC(=O)C2CCCCC2)c(=O)cc1-c1ccccc1	nM	51
CCCCCn1cc(C(=O)NC23CC4CC(CC(C4)C2)C3)c(=O)cc1-c1ccccc1Cl	nM	0.7

For each of the compounds below, note its Ki.
1. CCCCCn1cc(C(=O)Nc2cccc(C(F)(F)F)c2)c(=O)cc1-c1ccccc1
2. CCCCCn1cc(C(=O)NC23CC4CC(CC(C4)C2)C3)c(=O)cc1-c1cccc(Cl)c1
3. CCCCCn1cc(C(=O)NC23CC4CC(CC(C4)C2)C3)c(=O)cc1-c1ccc(C)cc1

RESULT:
[25.8, 1.8, 13.2]

QUERY: Reported Ki for CCCCCn1cc(NC(=O)OC(C)(C)C)c(=O)cc1-c1ccccc1 : what is it?
RESULT: 209

----------
Quick record of Ki values for Cannabinoid receptor 1 (Homo sapiens).

Answered examples (3):
molecule	Ki
CCn1cc(C(=O)NC(C)C23CC4CC(CC(C4)C2)C3)c(=O)cc1-c1ccccc1 (racemic)	> 3 µM
CCCCCn1cc(C(=O)N[C@H]2CCCc3ccccc32)c(=O)cc1-c1ccccc1	> 1 µM
CCCCCn1cc(C(=O)NC23CC4CC(CC(C4)C2)C3)c(=O)cc1C	> 3 µM

Switching to the query record.
QUERY: Reported Ki for CC(NC(=O)c1cn(-c2ccccc2)c(-c2ccccc2)cc1=O)C12CC3CC(CC(C3)C1)C2 (racemic) : what is it?
RESULT: > 3 µM
